# Species on record: Rattus norvegicus
# assay: DrugMatrix - Regimen: Daily Repeat
# Assay type: toxicity, organism-based, Sprague-Dawley
# Parameters: regimen Daily Repeat, gender Male, age 6-8 weeks
# applied conditions: in vivo, po, 0 mg/kg, 120 h, tissue Blood, route oral GAVAGE, dose level Control, time 5 day, […]
assay metric: MEAN CORPUSCULAR HEMOGLOBIN (pg)

- compound: "CC(=O)Oc1ccccc1C(=O)O [ASPIRIN]"
  readout unit: "pg"
  val: 24.5
- compound: "c1ccoc1 [FURAN]"
  readout unit: "pg"
  val: 21.05
- compound: "O=c1c(-c2ccc(O)cc2)coc2cc(O)cc(O)c12 [GENISTEIN]"
  readout unit: "pg"
  val: 24.32
- compound: "CS(=O)(=O)Nc1ccc([N+](=O)[O-])cc1Oc1ccccc1 [NIMESULIDE]"
  readout unit: "pg"
  val: 24.93
- compound: "CCc1ccc(CCOc2ccc(CC3SC(=O)NC3=O)cc2)nc1 (configuration not stated) [PIOGLITAZONE]"
  readout unit: "pg"
  val: 23.95
- compound: "CC(C)c1c(C(=O)Nc2ccccc2)c(-c2ccccc2)c(-c2ccc(F)cc2)n1CC[C@@H](O)C[C@@H](O)CC(=O)O [ATORVASTATIN]"
  readout unit: "pg"
  val: 24.32
- compound: "CCCCC(=O)N(Cc1ccc(-c2ccccc2-c2nnn[nH]2)cc1)[C@H](C(=O)O)C(C)C"
  readout unit: "pg"
  val: 23.83

Every entry's value here was drawn from ChEMBL document CHEMBL3885881.
